# protocol.text: Chemical stability in PBS buffer at pH 7.4 assessed as compound remaining measured at 60 mins by RF-MS analysis
# Format: physicochemical
# conditions.used: read-out: Stability
measurement.name: remaining at 1 h
Kindly write the number and append the unit.

Answered cases to consult:
- C=C(C)[C@@H]1CC[C@]2(C(=O)OCc3cn([C@H]4O[C@H](COC(C)=O)[C@@H](OC(C)=O)[C@H](OC(C)=O)[C@H]4OC(C)=O)nn3)CC[C@]3(C)[C@H](CC[C@@H]4[C@@]5(C)CC[C@H](O)C(C)(C)[C@@H]5CC[C@]43C)[C@@H]12: 82.3%
- C=C(C=O)[C@@H]1CC[C@]2(C(=O)OCc3cn([C@H]4O[C@H](COC(C)=O)[C@@H](OC(C)=O)[C@H](OC(C)=O)[C@H]4OC(C)=O)nn3)CC[C@]3(C)[C@H](CC[C@@H]4[C@@]5(C)Cc6nccnc6C(C)(C)[C@@H]5CC[C@]43C)[C@@H]12 (stereo in doubt): 87.8%
- C=C(C)[C@@H]1CC[C@]2(C(=O)OCc3cn([C@H]4O[C@H](COC(C)=O)[C@@H](OC(C)=O)[C@H](OC(C)=O)[C@H]4OC(C)=O)nn3)CC[C@]3(C)[C@H](CC[C@@H]4[C@@]5(C)Cc6nccnc6C(C)(C)[C@@H]5CC[C@]43C)[C@@H]12 (stereo in doubt): 92.1%

Note remaining at 1 h for the compound shown: C=C(C=O)[C@@H]1CC[C@]2(C(=O)OCc3cn([C@H]4O[C@H](COC(C)=O)[C@@H](OC(C)=O)[C@H](OC(C)=O)[C@H]4OC(C)=O)nn3)CC[C@]3(C)[C@H](CC[C@@H]4[C@@]5(C)CC[C@H](O)C(C)(C)[C@@H]5CC[C@]43C)[C@@H]12 89.2%

----------
# System: CCRF-CEM
# protocol.text: Induction of apoptosis in human CCRF-CEM cells assessed as increase in Noxa expression at 1 to 5 times IC50 incubated for 24 hrs by Western blot analysis
# Type: functional, cell-based
The source made the active and inactive calls. The calls are words filed in the database; no cut-off is given here.
measurement.name: Activity

* C=C(C=O)[C@@H]1CC[C@]2(C(=O)OCc3cn([C@H]4O[C@H](COC(C)=O)[C@@H](OC(C)=O)[C@H](OC(C)=O)[C@H]4OC(C)=O)nn3)CC[C@]3(C)[C@H](CC[C@@H]4[C@@]5(C)Cc6nccnc6C(C)(C)[C@@H]5CC[C@]43C)[C@@H]12 (stereo in doubt) | Active
* C=C(C)[C@@H]1CC[C@]2(C(=O)OCc3oc(=O)oc3C)CC[C@]3(C)[C@H](CC[C@@H]4[C@@]5(C)CC[C@H](O)C(C)(C)[C@@H]5CC[C@]43C)[C@@H]12 | Active
* C=C(C=O)[C@@H]1CC[C@]2(C(=O)O)CC[C@]3(C)[C@H](CC[C@@H]4[C@@]5(C)Cc6nccnc6C(C)(C)[C@@H]5CC[C@]43C)[C@@H]12 | Active

----------
Measured pIC50 of individual entries
# Test system: U2OS
# protocol.text: Cytotoxicity against human U2OS cells assessed as reduction in cell viability incubated for 72 hrs by MTS assay
# Format: functional, cell-based
Units for pIC50: none; it is -log10 of a concentration expressed in mol/L.

Answered cases to consult:
* C=C(C)[C@@H]1CC[C@]2(C(=O)OCc3oc(=O)oc3C)CC[C@]3(C)[C@H](CC[C@@H]4[C@@]5(C)Cc6nccnc6C(C)(C)[C@@H]5CC[C@]43C)[C@@H]12 | 4.35
* C=C(C=O)[C@@H]1CC[C@]2(C(=O)OCc3cn([C@H]4O[C@H](COC(C)=O)[C@@H](OC(C)=O)[C@H](OC(C)=O)[C@H]4OC(C)=O)nn3)CC[C@]3(C)[C@H](CC[C@@H]4[C@@]5(C)CC[C@H](O)C(C)(C)[C@@H]5CC[C@]43C)[C@@H]12 | 5.77
* C#CCOC(=O)[C@]12CC[C@@H](C(=C)C)[C@@H]1[C@H]1CC[C@@H]3[C@@]4(C)CC[C@H](O)C(C)(C)[C@@H]4CC[C@@]3(C)[C@]1(C)CC2 | 4.51

Name the value of pIC50 reported for CC1=CC[C@]2(C(=O)O)CC[C@]3(C)C(=CC[C@@H]4[C@@]5(C)Cc6cccnc6C(C)(C)[C@@H]5CC[C@]43C)[C@H]2[C@@H]1C when tested on U2OS. 4.46

Name the value of pIC50 reported for C=C(C)[C@@H]1CC[C@]2(C(=O)OCc3oc(=O)oc3C)CC[C@]3(C)[C@H](CC[C@@H]4[C@@]5(C)CC[C@H](O)C(C)(C)[C@@H]5CC[C@]43C)[C@@H]12 when tested on U2OS. 4.72

Name the value of pIC50 reported for C=C(C)[C@@H]1CC[C@]2(C(=O)OCc3oc(=O)oc3C)CC[C@]3(C)[C@H](CC[C@@H]4[C@@]5(C)CCC(=O)C(C)(C)[C@@H]5CC[C@]43C)[C@@H]12 when tested on U2OS. 4.66

----------
Measured remaining at 1 h, 2 µM of individual entries
# protocol.text: Stability in human liver microsomes assessed as compound remaining at 2 uM measured at 60 mins in presence of NADPH by RF-MS analysis
# Assay type: ADME, Microsome
# conditions.used: read-out: Stability
Give the value in % but do not write % after it.

Note remaining at 1 h, 2 µM for the compound shown: C=C(C)[C@@H]1CC[C@]2(C(=O)OCc3cn([C@H]4O[C@H](COC(C)=O)[C@@H](OC(C)=O)[C@H](OC(C)=O)[C@H]4OC(C)=O)nn3)CC[C@]3(C)[C@H](CC[C@@H]4[C@@]5(C)Cc6nccnc6C(C)(C)[C@@H]5CC[C@]43C)[C@@H]12 (stereo in doubt) 97.8

----------
# protocol.text: Cytotoxicity against human BJ cells assessed as reduction in cell viability incubated for 72 hrs by MTS assay
# Format: toxicity, cell-based
measurement.name: IC50 at 72 h

Answered cases to consult:
• C=C(C)[C@@H]1CC[C@]2(C(=O)OCc3oc(=O)oc3C)CC[C@]3(C)[C@H](CC[C@@H]4[C@@]5(C)CCC(=O)C(C)(C)[C@@H]5CC[C@]43C)[C@@H]12 = > 50 µM
• CC1(C)C=C2[C@H]3CC[C@@H]4[C@@]5(C)Cc6cccnc6C(C)(C)[C@@H]5CC[C@@]4(C)[C@]3(C)CC[C@@]2(C(=O)O)CC1 = > 50 µM
• C=C(C)[C@@H]1CC[C@]2(C(=O)OCc3oc(=O)oc3C)CC[C@]3(C)[C@H](CC[C@@H]4[C@@]5(C)Cc6nccnc6C(C)(C)[C@@H]5CC[C@]43C)[C@@H]12 = > 50 µM
• C=C(C)[C@@H]1CC[C@]2(C(=O)OCc3oc(=O)oc3C)CC[C@]3(C)[C@H](CC[C@@H]4[C@@]5(C)CC[C@H](O)C(C)(C)[C@@H]5CC[C@]43C)[C@@H]12 = 44 µM
• C=C(C)[C@@H]1CC[C@]2(C(=O)OCc3oc(=O)oc3C)CC[C@]3(C)[C@H](CC[C@@H]4[C@@]5(C)Cc6cccnc6C(C)(C)[C@@H]5CC[C@]43C)[C@@H]12 = > 50 µM
• C#CCOC(=O)[C@]12CC[C@@H](C(=C)C=O)[C@@H]1[C@H]1CC[C@@H]3[C@@]4(C)CC[C@H](O)C(C)(C)[C@@H]4CC[C@@]3(C)[C@]1(C)CC2 = 7.1 µM
• C[C@H]1[C@H](C)CC[C@]2(C(=O)O)CC[C@]3(C)C(=CC[C@@H]4[C@@]5(C)Cc6nccnc6C(C)(C)[C@]5(C)CC[C@]43C)[C@H]12 = > 50 µM
• CC1(C)CC[C@]23CC[C@]4(C)[C@H](CC[C@@H]5[C@@]6(C)CCC(=O)C(C)(C)[C@@H]6CC[C@]54C)[C@H]2[C@H]1OC3 = > 50 µM
• CC1=CC[C@]2(C(=O)O)CC[C@]3(C)[C@H](CC[C@@H]4[C@@]5(C)Cc6nccnc6C(C)(C)[C@@H]5CC[C@]43C)[C@H]2[C@@H]1C = > 50 µM
• CC1(C)CC[C@]23CC[C@]4(C)[C@H](CC[C@@H]5[C@@]6(C)Cc7cccnc7C(C)(C)[C@@H]6CC[C@]54C)[C@H]2[C@H]1OC3 = > 50 µM

Note IC50 at 72 h for the compound shown: Cc1oc(=O)oc1COC(=O)[C@]12CC[C@@H](C(C)C)[C@@H]1[C@H]1CC[C@@H]3[C@@]4(C)Cc5nccnc5C(C)(C)[C@@H]4CC[C@@]3(C)[C@]1(C)CC2 > 50 µM

----------
# Tested on: CCRF-CEM
# protocol.text: Induction of apoptosis in human CCRF-CEM cells assessed as accumulation of Bid protein expression at 1 to 5 times IC50 incubated for 24 hrs by Western blot analysis
# Format: functional, cell-based
Activity calls are given as the source filed them. The calls are words filed in the database; no cut-off is given here.
measurement.name: Activity

- C=C(C=O)[C@@H]1CC[C@]2(C(=O)O)CC[C@]3(C)[C@H](CC[C@@H]4[C@@]5(C)Cc6nccnc6C(C)(C)[C@@H]5CC[C@]43C)[C@@H]12: Active
- C=C(C=O)[C@@H]1CC[C@]2(C(=O)OCc3cn([C@H]4O[C@H](COC(C)=O)[C@@H](OC(C)=O)[C@H](OC(C)=O)[C@H]4OC(C)=O)nn3)CC[C@]3(C)[C@H](CC[C@@H]4[C@@]5(C)Cc6nccnc6C(C)(C)[C@@H]5CC[C@]43C)[C@@H]12 (stereo in doubt): Active
- C=C(C)[C@@H]1CC[C@]2(C(=O)OCc3oc(=O)oc3C)CC[C@]3(C)[C@H](CC[C@@H]4[C@@]5(C)CCC(=O)C(C)(C)[C@@H]5CC[C@]43C)[C@@H]12: Active

Cited source for all entries: ChEMBL document CHEMBL5352436
